Sourced from ChEMBL document CHEMBL4354827

Assay: Drug level in Wistar rat brain at 3 mg/kg, po after 2 hrs by LC-MS/MS analysis
Assay type: ADME, organism-based
Details: read-out: Drug uptake
REPORTED_ENDPOINT: concentration at 2 h

concentration at 2 h reading for CCC(=O)c1cc(-c2ccc(Cl)cc2)n(-c2ccc(S(N)(=O)=O)cc2)c1C : 110 to 140 nM

###

Assay: Ratio of drug level in brain to plasma in Wistar rat at 3 mg/kg, po after 2 hrs by LC-MS/MS analysis
Assay type: ADME, organism-based
Details: brain and plasma, read-out: BPR
REPORTED_ENDPOINT: Kp at 2 h

Kp at 2 h reading for CCC(=O)c1cc(-c2ccc(Cl)cc2)n(-c2ccc(S(N)(=O)=O)cc2)c1C : 0.1 to 0.2
